Measured TGI of individual entries
System: SK-OV-3 ovarian
Method description: NCI tumour cell line growth inhibition, 48 h

Compound: COc1ccc(C2C3=C(COC3=O)OC(C)(C)Oc3cc4c(cc32)OCO4)cc1 (configuration not stated)
Subject of test: SK-OV-3 ovarian
Readout label: TGI
Measured: > 100 µM

Ask: Give recorded TGI with SK-OV-3 ovarian for the following compound: FC(F)(F)c1ccc2c(c1)nc(Cc1ccc(Cl)c(Cl)c1)n2CC1CCCN2CCCCC12 (configuration not stated)
Reply: 90 µM

Ask: Give recorded TGI with SK-OV-3 ovarian for the following compound: CN1CCC(C(=O)NNc2ccccc2)CC1
Reply: > 100 µM

Ask: Give recorded TGI with SK-OV-3 ovarian for the following compound: CCOc1ncn(-c2ccc(NC(=S)Nc3cnccn3)cc2)n1
Reply: > 10 µM

Ask: Give recorded TGI with SK-OV-3 ovarian for the following compound: COc1cc(CNc2nc3cc(N)cc(N)c3nc2-c2ccccc2)cc(OC)c1OC
Reply: 13.9 µM

Ask: Give recorded TGI with SK-OV-3 ovarian for the following compound: C=C1C(=O)CCC1C(=O)O (configuration not stated)
Reply: > 100 µM

Ask: Give recorded TGI with SK-OV-3 ovarian for the following compound: C=CC1(c2ccccc2Cl)N/C(=C/OCC)CO1 (configuration not stated)
Reply: > 100 µM

Ask: Give recorded TGI with SK-OV-3 ovarian for the following compound: NC(=S)N/N=C1\C(=O)N(CCc2ccccc2)C(=O)C1C(=O)NCCc1ccccc1 (configuration not stated)
Reply: > 100 µM

Ask: Give recorded TGI with SK-OV-3 ovarian for the following compound: O=S(=O)(CC#CCCCOCC#Cc1ccccc1C#CCS(=O)(=O)c1ccccc1)c1ccccc1
Reply: > 100 µM
